Each item that follows carries a reported TS in Equilibrium with Aqueous Solutions of (mol/kg) 0.475.
# experiment_notes: Temperature sensitivity of carboxylic acid extraction by 0.5 mol/kg Alamine 304 + 10% octanol in kerosene
# Assay type: physicochemical
# assay_context: distribution coefficient at 30°C divided by that at 75°C; aqueous phase 0.475 mol/kg
measured_metric: TS in Equilibrium with Aqueous Solutions of (mol/kg) 0.475

compound	measured_number
CC(O)C(=O)O (stereo not shown)	2.2
O=C(O)CC(O)(CC(=O)O)C(=O)O	2.2
O=C(O)CCC(=O)O	4.1
O=C(O)[C@H](O)[C@@H](O)[C@H](O)[C@H](O)CO	2.6
O=C(O)/C=C\C(=O)O	1.0
O=C(O)CC(=O)O	1.1
O=C(O)CC(O)C(=O)O (stereo not shown)	4.0
O=C(O)C(O)C(O)C(=O)O (stereo not shown)	2.4
O=C(O)CCCC(=O)O	4.4
CC(C)C(=O)O	1.1
